Assay: Rat tissue distribution of 99mTc complexes of example ligands (Table 6)
Assay type: in vivo, Sprague-Dawley Rats
Settings: 99mTc complex, Sk. Muscle, 30 min
Observation type: Sk. Muscle tissue distribution (% ID/g)

>  <Compound>
N[C@@H](CCCCN(Cc1ccccn1)Cc1ccccn1)C(=O)O [DpK, [ε-{N,N-di(pyridyl-2-methyl)}α-lysine], reference compound]

>  <Measured result>
0.03

$$$$
>  <Compound>
CCOCCn1ccnc1CN(CCCC[C@H](N)C(=O)O)Cc1nccn1CCOCC (stereo in doubt) [Compound 4]

>  <Measured result>
0.02

$$$$
>  <Compound>
Cn1ccnc1CN(CCCC[C@H](N)C(=O)O)CC(=O)O [Compound 18]

>  <Measured result>
0.09

$$$$
>  <Compound>
N[C@@H](CCCCN(Cc1nccn1CC(=O)O)Cc1nccn1CC(=O)O)C(=O)O (stereo in doubt) [Compound 2]

>  <Measured result>
0.21

$$$$
>  <Compound>
Cn1ccnc1CN(CCCC[C@H](N)C(=O)O)Cc1nccn1C [Compound 13]

>  <Measured result>
0.06

$$$$
>  <Compound>
N[C@@H](CCCCN(Cc1nccs1)Cc1nccs1)C(=O)O [DtK, (dithiazole)lysine]

>  <Measured result>
0.16

$$$$
>  <Compound>
COC(Cn1ccnc1CN(CCCC[C@H](N)C(=O)O)Cc1nccn1CC(OC)OC)OC (stereo in doubt) [Compound 6]

>  <Measured result>
0.1

$$$$
